- Test system: CGH-1_248-420^WT (Caenorhabditis elegans, UniProt Q95YF3)
- Construct: the cDNA fragments encoding CGH-1 RecA2 (residues 248–420); made in house; host or cells: E. coli Gold (DE3)
- Sequence (Q95YF3 248-420): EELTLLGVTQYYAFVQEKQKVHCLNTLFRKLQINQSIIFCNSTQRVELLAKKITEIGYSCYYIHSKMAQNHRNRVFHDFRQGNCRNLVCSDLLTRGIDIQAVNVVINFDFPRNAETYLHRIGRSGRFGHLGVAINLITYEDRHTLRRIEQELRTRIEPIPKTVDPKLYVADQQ
- Procedure details: ITC binding to CGH-1_248–420 WT
- Design: species or system C. elegans
No end group written: not given here.
Test readout: Kd (nM)
Write the number in nM without appending the unit.

Could you share which Kd value was measured for LADPIDFDLDSDFDFAENLKLFEKDENDDQYYETVEK [EDC-3_235–271] ?
340
